The reported numbers originate from patent US20100279997A1.

// reported % DAMGO (0.1 μM) for each item listed
# target_under_test: μ opiate receptor (MOR) (Rattus norvegicus, UniProt P33535)
# Construct: from tissue; host or cells: striatal tissue (membrane preparation)
# Sequence (P33535 whole entry): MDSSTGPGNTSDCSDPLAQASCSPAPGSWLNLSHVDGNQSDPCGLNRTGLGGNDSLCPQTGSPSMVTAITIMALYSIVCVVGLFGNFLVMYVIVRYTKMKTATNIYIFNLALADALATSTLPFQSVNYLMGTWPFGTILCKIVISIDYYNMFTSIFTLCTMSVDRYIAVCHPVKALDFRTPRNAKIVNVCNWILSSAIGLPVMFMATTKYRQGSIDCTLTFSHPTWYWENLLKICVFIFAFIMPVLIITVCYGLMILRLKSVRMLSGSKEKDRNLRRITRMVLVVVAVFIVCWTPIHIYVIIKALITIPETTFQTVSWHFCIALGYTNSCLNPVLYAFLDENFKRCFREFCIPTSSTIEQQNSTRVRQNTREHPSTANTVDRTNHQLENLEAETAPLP
# assay_procedure: MOR agonist activity, [35S]GTPγS binding assay using striatal membranes
# Format: biochemical
# condition: relative to DAMGO, 0.1 μM
Return type: number; implicit unit %.

# annotated cases, reported % DAMGO (0.1 μM) shown
COc1ccc(OCC(O)CN2CCOc3ccccc32)cc1 (stereo not drawn) [Compound A0076] = 46.4
CC1CCC(C(C)C)C(OCC(O)CN(C(C)C)C(C)C)C1 (stereo not drawn) [Compound A0037] = 90.7
COc1ccc(OCC(O)CN2CCCc3ccccc32)cc1 (stereo not drawn) [Compound A0067] = 99.2
COc1ccc(OCC(O)CN2CCC(=O)CC2)cc1 (stereo not drawn) [Compound A0071] = 128.2
CC1CCC(C(C)C)C(OCC(O)CN2CCOc3ccccc32)C1 (stereo not drawn) [Compound A0066] = 88.3

Could you tell me which % DAMGO (0.1 μM) is on file for COc1ccc(OCC(O)CN2CCN(Cc3ccccc3)CC2)cc1 (stereo not drawn) [Compound A0073] ?
100.5

Please do the same for OC(COc1ccc(Br)c(F)c1)CN1CCN(CCN2CCOCC2)CC1 (stereo not drawn) [Compound A0063] as well.
78.7

Please do the same for CC1CCC(C(C)C)C(OCC(O)CN2CCN(Cc3ccccc3)CC2)C1 (stereo not drawn) [Compound A0072] as well.
126.8

Please do the same for CC1CCC(C(C)C)C(OCC(O)CN2CC(C)OC(C)C2)C1 (stereo not drawn) [Compound A0032-1] as well.
95.5

---

# target_under_test: Bn-VAKGL pentapeptide of filamin A (FLNA) (Homo sapiens)
# assay_procedure: FITC-NLX-based FLNA screening assay (FLNA peptide binding assay)
# condition: read-out: Percent inhibition of FITC-NLX binding, 0.1 μM
# Experimental: The final assay volume is 100 μl. Compounds are tested in triplicate or quadruplicate.
property: inhibition at 0.1 µM (%)
Return type: number; implicit unit %.

# annotated cases, reported inhibition at 0.1 µM shown
CC1CCC(C(C)C)C(OCC(O)CN2CCc3ccccc32)C1 (stereo not drawn) [Compound A0065] = 50
OC(CN1CCc2ccccc2C1)OCc1ccc(Br)c(F)c1 (stereo not drawn) [Compound A0057] = 37
COc1ccc(OCC(O)CN2CCN(Cc3ccccc3)CC2)cc1 (stereo not drawn) [Compound A0073] = 54.8
OC(COc1ccc(Br)c(F)c1)CN1CCN(CCN2CCOCC2)CC1 (stereo not drawn) [Compound A0063] = 31

Could you tell me which inhibition at 0.1 µM is on file for CC1CCC(C(C)C)C(OCC(O)CN2CCN(Cc3ccccc3)CC2)C1 (stereo not drawn) [Compound A0072] ?
52.2

Please do the same for COc1ccc(OCC(O)CN2CCc3ccccc32)cc1 (stereo not drawn) [Compound A0069] as well.
40.4

---

// reported [35S]GTPγS binding to Gαo, FLNA-binding compound as agonist 1 μM + BFNA for each item listed
# target_under_test: μ opiate receptor (MOR) (Rattus norvegicus, UniProt P33535)
# Construct: from tissue; host or cells: striatal tissue (membrane preparation)
# assay_procedure: MOR agonist activity, [35S]GTPγS binding assay using striatal membranes
# Type: biochemical
# condition: 1 μM compound + 1 μM β-funaltrexamine
Return type: number; implicit unit %.

# annotated cases, reported [35S]GTPγS binding to Gαo, FLNA-binding compound as agonist 1 μM + BFNA shown
CC1CN(CC(O)COC2CCCCC2)CC(C)O1 (stereo not drawn) = 65.2
CC1CN(CC(O)COc2cccc(F)c2)CC(C)O1 (stereo not drawn) = 107.1

Next item in the queue.
Could you tell me which [35S]GTPγS binding to Gαo, FLNA-binding compound as agonist 1 μM + BFNA is on file for CC1CCC(C(C)C)C(OCC(O)CN2CCCCCC2)C1 (stereo not drawn) ?
86.1
